Every entry's value here was drawn from patent US8399465B2.

Test system: LTB4 production in murine blood (LTA4H)
measurement_description: LTB4 production by calcium ionophore-stimulated murine blood for LTA4H inhibitor activity
Format: cell-based, CD-1 mice
condition_notes: Mus musculus; murine blood diluted 1 in 15, A23187 stimulated; single determination or average; mark after value = form tested: ′ free base, ″ hydrochloride, ^ formate; read-out: IC50
pIC50: −log10 of the molar value. Counter-ions that a name gives are not always drawn.
measurement_kind: pIC50

a: CC(C)(C)NCc1coc2cc(Oc3nc4ncccc4s3)ccc12 [Example 301, formate]
b: c1csc(CN2CCN(Cc3coc4cc(Oc5nc6ncccc6s5)ccc34)CC2)c1 [Example 325]
c: c1ccc(CCN2CCN(Cc3coc4cc(Oc5nc6ncccc6s5)ccc34)CC2)cc1 [Example 291, formate]
Prompt: From the records above, write out the order of decreasing pIC50. List the labels in the requested order.
Completion: a, b, c
(a: 8.40, b: 7.11, c: 6.89)

1: FC1CCCN(Cc2coc3cc(Oc4nc5ncccc5s4)ccc23)C1 (centres unmarked) [Example 350]
2: CCn1c(CN2CCCC2)cc2cc(Oc3nc4ccccc4s3)ccc21 [Example 64]
3: O=C1C[C@@H](O)CN1C1CCN(Cc2c[nH]c3cc(Oc4nc5ccccc5s4)ccc23)CC1 [Example 44]
Prompt: Write the entries in order, lowest recorded pIC50 first. List the labels in the requested order.
Completion: 2, 3, 1
(2: 5.61, 3: 6.65, 1: 7.42)
